Reference for the values: patent US8153165B2

Test system: types of fish common in aquariums (acute toxicity of ammonia)
Test method notes: Behavior of aquarium fish in water with 1000 μmol/l of total ammonia, with and without preparation
Type: in vivo
Measurement setup: in vivo
Quantity kind: reduction of the acute toxicity of ammonia in water animals, in particular ornamental fish

>>> print(df.to_string())
                                   molecule              observed
0  O=S(=O)([O-])C(O)CCCC(O)S(=O)(=O)[O-].[Na+].[Na+] (centres unmarked) [NaHSO3 bisadduct of glutardialdehyde]  especially effective
1  O=S(=O)([O-])C(O)C(O)S(=O)(=O)[O-].[Na+].[Na+] (centres unmarked) [glyoxal•2NaHSO3, NaHSO3 bisadduct of glyoxal]  especially effective
